System: EKVX NSCLC
Experiment notes: NCI tumour cell line growth inhibition, 48 h
Measured quantity: GI50

// recorded GI50 for O=c1[nH]c2c(ccc3cnccc32)c2c1CCC2 : 1.47 µM

// recorded GI50 for O[C@@H]1CCCCN1Cc1cc2cc3c(cc2c2cc(OCc4ccccc4)ccc12)OCO3 : 2.01 µM

// recorded GI50 for COC(=O)[C@@H](C)C[C@H](Cc1ccccc1)NC(=O)c1nc([C@@H](C[C@H](C(C)C)N(C)C(=O)[C@@H](NC(=O)[C@H]2CC(=O)CCN2C)C(C)C)OC(C)=O)sc1C(C)C : 0.953 µM

// recorded GI50 for CC(=O)Nc1ccc(/C=C/C(=O)c2sc(-n3nc(-c4ccccc4)cc3-c3ccccc3)nc2C)cc1 : > 100 µM

// recorded GI50 for COc1cnc2c(c1)C(=O)c1c-2n(CCCN2CCNCC2)c(=O)c2cc(F)ccc12 : 0.441 µM

// recorded GI50 for COc1cc(C(=O)N[C@@H]2CCCN(C)C2)ccc1Nc1ncc2c(n1)N(C1CCCC1)CC(C)(C)C(=O)N2C : 1.11 µM

// recorded GI50 for Nc1nc(N)c2nc(CNc3ccc(C(=O)NC(CCC(=O)O)C(=O)O)cc3)cnc2n1 (stereo unspecified) : 4.69 µM

// recorded GI50 for CC(C)OC(=O)OCOP(=O)(OCOC(=O)OC(C)C)C1CCCN(O)C1=O (stereo unspecified) : 3.03 µM

// recorded GI50 for COc1cc(/C=C2\C(=O)Nc3ccc(O)cc32)cc(OC)c1OC : 18.6 µM

// recorded GI50 for Nc1nc(-c2ccccn2)c(-c2ccc3ncccc3n2)s1 : > 25 µM

// recorded GI50 for COc1ncc(-c2ccc3nc(N)n(-c4ccccc4C(F)(F)F)c(=O)c3c2)cc1S(=O)(=O)Nc1ccc(F)cc1F : 0.86 µM

// recorded GI50 for COc1ccc(-c2cc(-c3ccc(Cl)cc3)c(C#N)c(=O)n2CCCCCC(=O)Nc2ccccc2N)cc1 : 3.44 µM

// recorded GI50 for CC(C)c1c(C(=O)Nc2ccccc2)c(-c2ccccc2)c(-c2ccc(F)cc2)n1CC[C@@H](O)C[C@@H](O)CC(=O)O : 49.4 µM

// recorded GI50 for CC1(C)CC[C@]2(C(=O)O)CC[C@]3(C)C(=CC[C@@H]4[C@@]5(C)C/C(=C/c6cccnc6)[C@H](O)C(C)(C)[C@@H]5CC[C@]43C)[C@@H]2C1 : 6.02 µM

// recorded GI50 for C=CN(C(=O)N1CCN(c2cc3c(cc2F)c(=O)c(C(=O)O)cn3C2CC2)CC1)c1nc(-c2ccc(C)cc2)cs1 : 3.61 µM

// recorded GI50 for C=C(C)[C@@H]1CC[C@]2(C(=O)OC)CC[C@]3(C)[C@H](CC[C@@H]4[C@@]5(C)CC/C(=N\OCCC(=NCCC#N)NOCCC#N)C(C)(C)[C@@H]5CC[C@]43C)[C@@H]12 : 4.77 µM

These measurements were taken from PubChem BioAssay (NCI).
